Below, each entry is listed with its recorded pKd.
# system under test: T1, PUF4 RNA-binding domain (Saccharomyces cerevisiae, UniProt P25339 537-888)
# T1 sequence: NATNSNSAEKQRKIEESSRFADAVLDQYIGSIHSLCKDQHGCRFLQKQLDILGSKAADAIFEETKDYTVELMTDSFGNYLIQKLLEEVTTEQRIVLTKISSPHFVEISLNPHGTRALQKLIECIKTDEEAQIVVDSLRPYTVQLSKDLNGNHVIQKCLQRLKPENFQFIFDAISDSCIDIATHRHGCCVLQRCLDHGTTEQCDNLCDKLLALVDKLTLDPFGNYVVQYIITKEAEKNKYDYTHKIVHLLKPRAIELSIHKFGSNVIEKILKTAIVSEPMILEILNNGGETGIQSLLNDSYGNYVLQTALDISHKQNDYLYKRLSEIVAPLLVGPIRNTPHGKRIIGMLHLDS
# measurement description: Mg; RNA-MaP; 20 mM Na-HEPES pH 7.4, 30 mM KOAc, 0.75 mM MgCl2, 0.1% Tween-20, 5% glycerol, 0.1 mg/mL BSA, 2 mM DTT; 25 C; 0.0125-409.6 nM protein
# setup conditions: tags: N-His6-TEV cleaved; C-SNAP kept, Cy3B-labelled; label: tethered on chip by stalled RNA polymerase
pKd: −log10 of the molar value.

{"columns": ["binder", "qual", "pKd"],
 "data": [
  ["Ie_S2_P5E.1_K5.1_C5.1_H5.1_[+3CCTC]_A5.1_F5.1_T5.1 (ssRNA) RNA: UUUGAUUAAUAUGAUAUCGUUCUUUCUUGUCCUCAUUAUUAUUCUUUCUCGAUAUCAUAUUAAUCUUU", "=", 6.89],
  ["UCUCUUAGACACUAUUAACUCUCUU (ssRNA) [Id_ii_S1_P4E.4_K4.3_C4.2_[C-2A]_[T-1G]_H4.3_A4.1_F4.1_T4.2_[G10A]_[T11C]]", "<", 5.64],
  ["ACAAACUCUACACUAUAUUACAAAC (ssRNA) [Id_iii_S3_P3E.7_K3.3_C3.3_H3.3_A3.1_F3.1_T3.2_[A10T]]", "=", 6.04],
  ["UCUCUUUGUAUUGUGUCUCUU (ssRNA) [Ic_S1_P4E.1_K4.1_C4.1_H4.1_A4.1_[A6T]_[T7G]_F4.1_[A9G]_T4.1]", "=", 7.40],
  ["Id_ii_S2_P5E.3_K5.2_C5.2_[C-2T]_H5.2_A5.1_F5.1_T5.2_[T11A]_[A12T] (ssRNA) RNA: UUUGAUUAAUAUGAUAUCGUUCUUUCUUUUAUAUUAUUAAUUUCUUUCUCGAUAUCAUAUUAAUCUUU", "=", 6.43],
  ["Ie_S2_P4E.1_K4.1_C4.1_H4.1_[+3CCCT]_A4.1_F4.1_T4.1 (ssRNA) RNA: UUUGAUUAAUAUGAUAUCGUUCUUUCUUGUCCCUAUAUUAUUCUUUCUCGAUAUCAUAUUAAUCUUU", "=", 7.38],
  ["UCUCUUUGUAAUCCGCUCUCUU (ssRNA) [Ic_S1_P5E.1_K5.1_C5.1_H5.1_A5.1_[T5A]_[A7C]_F5.1_[T8C]_[T9G]_[A10C]_T5.1]", "=", 5.78],
  ["ACAAACACUAUAUUAUUACAACAAAC (ssRNA) [Id_ii_S3_P5E.3_K5.2_C5.2_[C-2A]_[T-1C]_H5.2_A5.1_F5.1_T5.2_[T11C]]", "=", 6.34],
  ["UCUCUUUGUGUAUAUACCUCUCUU (ssRNA) [Id_ii_S1_P3E.2_K3.1_C3.2_[C-2T]_[T-1G]_H3.1_A3.1_F3.1_T3.2_[T9C]_[A10C]]", "=", 7.63],
  ["Ic_S2_P4E.1_K4.1_C4.1_H4.1_A4.1_[T5C]_[A6C]_[T7C]_F4.1_[T8C]_[A9G]_T4.1 (ssRNA) RNA: UUUGAUUAAUAUGAUAUCGUUCUUUCUUGUACCCCGUUCUUUCUCGAUAUCAUAUUAAUCUUU", "=", 6.23],
  ["Ib_S4_P3E.1_K3.1_C3.1_H3.1_[G2T]_A3.1_[A6T]_F3.1_T3.1 (ssRNA) RNA: UUUGACAACUGAUCGUUCUUUCUUUUAUUUAUUCUUUCUCGAUCAGUUGUCUUU", "<", 5.64],
  ["Ic_S4_P5E.1_K5.1_C5.1_H5.1_A5.1_[T5G]_[A7T]_F5.1_[T9C]_[A10C]_T5.1 (ssRNA) RNA: UUUGACAACUGAUCGUUCUUUCUUGUAGUUUCCUUCUUUCUCGAUCAGUUGUCUUU", "=", 6.90],
  ["Id_ii_S2_P3E.3_K3.2_C3.2_[C-2A]_[T-1C]_H3.2_A3.1_F3.1_T3.2_[A10C] (ssRNA) RNA: UUUGAUUAAUAUGAUAUCGUUCUUUCUACUAUAUAUAUCUUCUUUCUCGAUAUCAUAUUAAUCUUU", "=", 6.74],
  ["Id_ii_S2_P4E.4_K4.3_C4.2_[C-2A]_[T-1C]_H4.3_A4.1_F4.1_T4.2_[G10C] (ssRNA) RNA: UUUGAUUAAUAUGAUAUCGUUCUUUCUACACACUAUUACUUUCUUUCUCGAUAUCAUAUUAAUCUUU", "<", 5.64],
  ["Id_iii_S2_P5E.7_K5.3_C5.3_[T-1A]_H5.3_A5.1_F5.1_T5.2 (ssRNA) RNA: UUUGAUUAAUAUGAUAUCGUUCUUUCUUCAACACUUAUUAUAUUCUUUCUCGAUAUCAUAUUAAUCUUU", "=", 6.08],
  ["UCUCUUCAUAUAUAUUAGAUCUCUU (ssRNA) [Id_ii_S1_P4E.3_K4.2_C4.2_[T-1A]_H4.2_A4.1_F4.1_T4.2_[T11A]]", "=", 7.70],
  ["Ic_S4_P3E.1_K3.1_C3.1_H3.1_A3.1_[T5A]_F3.1_[A8G]_T3.1 (ssRNA) RNA: UUUGACAACUGAUCGUUCUUUCUUGUAAAUGUUCUUUCUCGAUCAGUUGUCUUU", "=", 6.53],
  ["UCUCUUUGUACGGCCUCUCUU (ssRNA) [Ic_S1_P4E.1_K4.1_C4.1_H4.1_A4.1_[T5C]_[A6G]_[T7G]_F4.1_[T8C]_[A9C]_T4.1]", "<", 5.64],
  ["ACAAACAAUAUAUUAUUAACACAAAC (ssRNA) [Id_ii_S3_P5E.3_K5.2_C5.2_[C-2A]_[T-1A]_H5.2_A5.1_F5.1_T5.2_[T11A]_[A12C]]", "=", 6.27],
  ["Ic_S2_P4E.1_K4.1_C4.1_H4.1_A4.1_[T5A]_[T7A]_F4.1_[T8C]_[A9C]_T4.1 (ssRNA) RNA: UUUGAUUAAUAUGAUAUCGUUCUUUCUUGUAAAACCUUCUUUCUCGAUAUCAUAUUAAUCUUU", "=", 6.41],
  ["Id_ii_S2_P3E.2_K3.1_C3.2_[C-2T]_[T-1G]_H3.1_A3.1_F3.1_T3.2_[T9G]_[A10C] (ssRNA) RNA: UUUGAUUAAUAUGAUAUCGUUCUUUCUUGUGUAUAUAGCUUCUUUCUCGAUAUCAUAUUAAUCUUU", "=", 8.19],
  ["UCUCUUUCACACUAUUACCUCUCUU (ssRNA) [Id_ii_S1_P4E.4_K4.3_C4.2_[C-2T]_[T-1C]_H4.3_A4.1_F4.1_T4.2_[G10C]_[T11C]]", "<", 5.64],
  ["UCUCUUUGUAUCUAGUCUCUU (ssRNA) [Ic_S1_P4E.1_K4.1_C4.1_H4.1_A4.1_[A6C]_F4.1_[T8A]_[A9G]_T4.1]", "=", 7.36],
  ["UCUCUUUGUAUUAAUCUCUU (ssRNA) [Ib_S1_P3E.1_K3.1_C3.1_H3.1_A3.1_[A6T]_F3.1_[T7A]_T3.1]", "=", 6.51]
]}
